Tested on: OVCAR-4 ovarian
Assay: NCI tumour cell line growth inhibition, 48 h
Endpoint: TGI

Examples with answers:
Compound	TGI
COc1ccc(O)c(C=NCCCN=Cc2cc(OC)ccc2O)c1	> 100 µM
COC(=O)C1(Cc2ccccc2)Cc2ccc3c(c2C1=O)CCC3 (stereo unspecified)	> 92.8 µM
O=[N+]([O-])O.[Ga]	5040 µM
COc1ccc2oc(C(=O)N3CC(CCl)c4ccc([N+](=O)[O-])cc43)cc2c1 (stereo unspecified)	> 100 µM

Please state, for each entry, its recorded TGI.
1. Cc1n[nH]c(=O)n1/N=C/c1c[nH]c2ccccc12
2. Oc1c(C2=N[C@H]3CCCC[C@@H]3N2)ccc2ccccc12

Data returned:
> 100 µM
> 100 µM
